Reported IC50 values follow for various compounds
test.system: recombinant human NAE enzyme (Homo sapiens, UniProt Q8TBC4)
Construct: His (N); made in house; host or cells: Sf9 insect cells (baculovirus, Bac-to-Bac)
Sequence (Q8TBC4 whole entry): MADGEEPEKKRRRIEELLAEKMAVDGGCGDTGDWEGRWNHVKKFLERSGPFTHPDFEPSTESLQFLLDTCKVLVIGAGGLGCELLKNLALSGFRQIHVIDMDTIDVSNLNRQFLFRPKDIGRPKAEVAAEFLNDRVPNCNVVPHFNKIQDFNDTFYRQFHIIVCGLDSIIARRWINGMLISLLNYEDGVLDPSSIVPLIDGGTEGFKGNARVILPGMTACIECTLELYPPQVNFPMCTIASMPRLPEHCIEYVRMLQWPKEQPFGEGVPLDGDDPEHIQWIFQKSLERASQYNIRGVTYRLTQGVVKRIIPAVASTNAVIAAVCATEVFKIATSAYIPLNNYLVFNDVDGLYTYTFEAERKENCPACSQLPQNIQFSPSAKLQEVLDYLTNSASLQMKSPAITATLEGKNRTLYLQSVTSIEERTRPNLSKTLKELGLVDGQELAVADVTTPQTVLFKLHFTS
Sequence (Q13564 whole entry partner): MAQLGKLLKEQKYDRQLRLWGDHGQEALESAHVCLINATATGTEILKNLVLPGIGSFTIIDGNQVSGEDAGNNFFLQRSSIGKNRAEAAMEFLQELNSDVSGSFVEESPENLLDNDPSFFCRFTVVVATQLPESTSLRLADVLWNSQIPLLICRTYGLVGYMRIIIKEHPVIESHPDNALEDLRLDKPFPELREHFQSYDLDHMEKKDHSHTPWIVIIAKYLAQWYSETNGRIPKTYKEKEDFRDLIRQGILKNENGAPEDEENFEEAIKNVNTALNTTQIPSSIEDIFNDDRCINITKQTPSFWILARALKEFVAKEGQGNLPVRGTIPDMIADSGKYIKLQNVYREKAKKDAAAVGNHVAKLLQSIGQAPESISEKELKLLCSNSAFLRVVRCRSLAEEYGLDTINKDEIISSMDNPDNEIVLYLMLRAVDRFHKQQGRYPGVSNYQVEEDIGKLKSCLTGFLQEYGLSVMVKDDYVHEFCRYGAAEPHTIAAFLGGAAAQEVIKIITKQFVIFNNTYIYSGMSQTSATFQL
assay.remarks: Nedd8-Activating Enzyme (NAE) HTRF Assay
Assay type: biochemical
reported.conditions: 20 μM ATP, bound given in nM

- compound: "NS(=O)(=O)OC[C@H]1C[C@@H](NC(=O)c2ccncc2)[C@H](O)[C@@H]1O [Compound I-28]"
  IC50: "> 500 nM"
- compound: "CC1(C)C[C@H](Nc2cc(N[C@@H]3C[C@@H](COS(N)(=O)=O)[C@@H](O)C3)ncn2)c2ccccc21 [Compound I-65]"
  IC50: "≤ 500 nM"
- compound: "NS(=O)(=O)OC[C@H]1C[C@@H](Nc2ncnc3[nH]c(-c4ccccc4)nc23)[C@H](O)[C@@H]1O [Compound I-9]"
  IC50: "≤ 500 nM"
- compound: "NS(=O)(=O)OC[C@H]1C[C@@H](Nc2cc(N[C@H]3CCc4cc(Cl)ccc43)ncn2)[C@H](O)[C@@H]1O [Compound I-19]"
  IC50: "≤ 500 nM"
- compound: "Cc1c(N[C@H]2CCc3ccccc32)ncnc1O[C@@H]1C[C@@H](COS(N)(=O)=O)[C@@H](O)C1 [Compound I-32]"
  IC50: "≤ 500 nM"
- compound: "NS(=O)(=O)OC[C@@H]1C[C@@H](Nc2cc(CCc3ccccc3)ncn2)C[C@@H]1O [Compound I-81]"
  IC50: "> 500 nM"
- compound: "NS(=O)(=O)OC[C@@H]1C[C@@H](Oc2cc(OCc3cccc4ccccc34)ncn2)C[C@@H]1O [Compound I-119]"
  IC50: "> 500 nM"

Recorded values, source patent US9718788B2.
